Let's look at some compounds and their measured human SKBR-3 cell proliferation, percent of control.
- System: human breast cancer SKBR-3 cells
- procedureDetails: Dose response of 1,4-naphthoquinone analogs in human breast cancer cells SKBR-3 (WST-1, 24 h)
- Type: cell-based
- conditionsUsed: 15 μM

Record excerpt, results attached:
>  <chemicalStructure>
COc1ccc(OC2=CC(=O)c3ccccc3C2=O)cc1

>  <result>
1.91% of control

$$$$
>  <chemicalStructure>
O=C1C=C(Oc2c(F)cc(F)cc2F)C(=O)c2ccccc21

>  <result>
1.20% of control

$$$$
>  <chemicalStructure>
O=C1C=C(Oc2ccccc2)C(=O)c2ccccc21

>  <result>
1.90% of control

$$$$
>  <chemicalStructure>
O=C1C=C(Oc2c(F)c(F)c(F)c(F)c2F)C(=O)c2ccccc21

>  <result>
35.60% of control

$$$$
>  <chemicalStructure>
Cc1cc(Cl)ccc1OC1=CC(=O)c2ccccc2C1=O

>  <result>
2.70% of control

$$$$
>  <chemicalStructure>
CC(=O)Nc1ccc(OC2=CC(=O)c3ccccc3C2=O)cc1

>  <result>
1.24% of control

$$$$

Okay, now this compound:
Enquiry: Could you share which human SKBR-3 cell proliferation, percent of control value was measured for `O=C1C=C(Oc2ccc(OCc3ccccc3)cc2)C(=O)c2ccccc21` ?
Return: 125.96% of control

###

- System: PTEN-P2/GFP prostate cancer cells
- procedureDetails: Effect of 1,4-naphthoquinone analogs on PTEN-P2/GFP cell proliferation (WST-1 cell viability, 24 h)
- Format: cell-based
- conditionsUsed: Mus musculus, 4 μM, WST-1, medium with 10% FBS and DHT, read-out: PTEN-P2/GFP cell proliferation, percent of control
experimentalReadout: activity at 4 µM (%)
The answer is to be given in %; state only the numeric part.

>  <molecule>
O=C1C=C(Oc2ccc(O)cc2)C(=O)c2ccccc21 [Analog F10, 2-(4-hydroxyphenoxy)-1,4-naphthoquinone]

>  <targetOrSystem>
PTEN-P2/GFP prostate cancer cells

>  <measureUnit>
%

>  <activity at 4 µM>
91.2

$$$$
>  <molecule>
O=C(NCCCl)Oc1ccc(OC2=C(Oc3ccc(OC(=O)NCCCl)cc3)C(=O)c3ccccc3C2=O)cc1

>  <targetOrSystem>
PTEN-P2/GFP prostate cancer cells

>  <measureUnit>
%

>  <activity at 4 µM>
35.8

$$$$
>  <molecule>
CC(=O)NC1=C(Oc2cc(F)cc(F)c2)C(=O)c2ccccc2C1=O

>  <targetOrSystem>
PTEN-P2/GFP prostate cancer cells

>  <measureUnit>
%

>  <activity at 4 µM>
78.3

$$$$

Let's switch to this molecule now.
Enquiry: Given the entry `O=C1C(Br)=C(Oc2ccccc2)C(=O)c2ccccc21` , what activity at 4 µM was observed with PTEN-P2/GFP prostate cancer cells?
Return: 85.5

###

Known human SKBR-3 cell proliferation, percent of control of a selection of molecules
- Tested on: human breast cancer SKBR-3 cells
- procedureDetails: Dose response of 1,4-naphthoquinone analogs in human breast cancer cells SKBR-3 (WST-1, 24 h)
- Assay type: cell-based
- conditionsUsed: 10 μM

Answered cases to consult:
>  <chemicalStructure>
O=C1C=C(Oc2c(F)cc(F)cc2F)C(=O)c2ccccc21

>  <result>
7.52% of control

$$$$
>  <chemicalStructure>
CC(=O)Nc1ccc(OC2=CC(=O)c3ccccc3C2=O)cc1

>  <result>
7.32% of control

$$$$
>  <chemicalStructure>
O=C1C=C(Oc2c(F)c(F)c(F)c(F)c2F)C(=O)c2ccccc21

>  <result>
75.45% of control

$$$$
>  <chemicalStructure>
COc1ccc(OC2=CC(=O)c3ccccc3C2=O)cc1

>  <result>
17.05% of control

$$$$
>  <chemicalStructure>
O=C1C=C(Oc2ccc(OCc3ccccc3)cc2)C(=O)c2ccccc21

>  <result>
136.66% of control

$$$$
>  <chemicalStructure>
Cc1cc(Cl)ccc1OC1=CC(=O)c2ccccc2C1=O

>  <result>
12.78% of control

$$$$

Now examine the next entry.
Enquiry: Data request, read-out human SKBR-3 cell proliferation, percent of control, for `O=C1C=C(Oc2ccccc2)C(=O)c2ccccc21`
Return: 4.30% of control
